# tested_system: flag-tagged HIF1α (AA 786-826) / His6-tagged p300 (AA 323-423) complex (Homo sapiens)
# Construct: His6-tagged p300 (AA 323-423); made in house; host or cells: E. coli (pETDuet vector)
# Sequence (Q09472 323-423, one chain of several): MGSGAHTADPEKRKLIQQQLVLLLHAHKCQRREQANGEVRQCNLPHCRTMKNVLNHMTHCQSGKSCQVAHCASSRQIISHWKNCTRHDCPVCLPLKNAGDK
# assay_summary: HIF1α p300 displacement assay (TR FRET, +CHAPS)
# Type: binding
# experimental_context: read-out: IC50 (nM) (HIF1α_p300 Displacement + CHAPS)
Bridge positions count the residues as written; N and C are the ends. Square brackets hold non-standard residues; d marks the D form. Peptide text beside a SMILES is read from it. S5 = C=CCCC[C@](C)(N)C(=O)O; Nle = CCCC[C@H](N)C(=O)O

[
  {
    "compound": "CCCC[C@H](NC(=O)[C@H](Cc1ccccc1)NC(=O)[C@@H](NC(=O)[C@H](CCC(=O)O)NC(=O)[C@H](CCC(=O)O)NC(=O)[C@H](CC(=O)O)NC(=O)[C@@H](NC(C)=O)[C@@H](C)CC)C(C)C)C(=O)N[C@@]1(C)CCCC=CCCC[C@@](C)(C(=O)N[C@@H](CCCC)C(=O)N[C@@H](C)C(=O)N[C@@H](CC(C)C)C(=O)N[C@@H](CC(C)C)C(N)=O)NC(=O)[C@H]([C@@H](C)CC)NC(=O)[C@H](C(C)C)NC(=O)[C@H](CC(C)C)NC1=O [SP-243] (Ac-IDEEVF[Nle][S5]LVI[S5][Nle]ALL-NH2; staple 8-12)",
    "tested_system": "flag-tagged HIF1α (AA 786-826) / His6-tagged p300 (AA 323-423) complex (Homo sapiens)",
    "IC50": "400 to 700 nM"
  }
]

###

# Test system: HRE-bla ME-180 cells
# assay_summary: Reporter gene assay (HRE-bla ME-180 HIF reporter, GeneBLAzer)
# Format: cell-based, human
# experimental_context: 24 hour normoxia
Bridge positions count the residues as written; N and C are the ends. Square brackets hold non-standard residues; d marks the D form. Peptide text beside a SMILES is read from it. R8 = C=CCCCCCC[C@@](C)(N)C(=O)O; Cba = N[C@@H](CC1CCC1)C(=O)O; S5 = C=CCCC[C@](C)(N)C(=O)O; Nle = CCCC[C@H](N)C(=O)O
# EC50 annotations
value_kind: EC50

[
  {
    "compound": "CCCC[C@@H]1NC(=O)[C@H](CC(C)C)NC(=O)[C@H](C(C)C)NC(=O)[C@@](C)(NC(=O)[C@H](CCC(=O)O)NC(=O)[C@H](CC(=O)O)NC(=O)[C@@H](NC(=O)[C@H](Cc2ccccc2)NC(C)=O)[C@@H](C)CC)CCCC=CCCCC2(CCCC=CCCC[C@](C)(C(=O)N[C@@H](C)C(=O)N[C@@H](C)C(=O)N[C@@H](CC(C)C)C(N)=O)NC(=O)[C@H]([C@@H](C)CC)NC(=O)[C@H](C(C)C)NC(=O)[C@H](CC(C)C)NC2=O)NC1=O (some centres unmarked) [SP-211]",
    "tested_system": "HRE-bla ME-180 cells",
    "result": "> 30 µM"
  },
  {
    "compound": "CC[C@H](C)[C@H](NC(=O)[C@H](Cc1ccccc1)NC(C)=O)C(=O)N[C@@H](CC(=O)O)C(=O)N[C@@H](CCC(=O)O)C(=O)N[C@@]1(C)CCCC=CCCC[C@@](C)(C(=O)N[C@@H](CC(C)C)C(=O)N[C@H](C(=O)N[C@H](C(=O)N[C@@H](CCC(=O)O)C(=O)N[C@@H](CCSC)C(=O)N[C@@H](C)C(=O)N[C@@H](CC(C)C)C(N)=O)[C@@H](C)CC)C(C)C)NC(=O)[C@H](CCSC)NC(=O)[C@H](CC(C)C)NC(=O)[C@H](C(C)C)NC1=O [SP-110] (Ac-FIDE[S5]VLM[S5]LVIEMAL-NH2; staple 5-9)",
    "tested_system": "HRE-bla ME-180 cells",
    "result": "> 30 µM"
  },
  {
    "compound": "CC[C@H](C)[C@H](NC(=O)[C@H](Cc1ccccc1)NC(C)=O)C(=O)N[C@@H](CC(=O)O)C(=O)N[C@@H](CCC(=O)O)C(=O)N[C@@H](CCC(=O)O)C(=O)N[C@H](C(=O)N[C@@H](CC(C)C)C(=O)N[C@@H](CCSC)C(=O)N[C@@]1(C)CCCC=CCCC[C@@](C)(C(=O)N[C@@H](CCSC)C(=O)N[C@@H](C)C(=O)N[C@@H](CC2CCC2)C(N)=O)NC(=O)[C@H]([C@@H](C)CC)NC(=O)[C@H](C(C)C)NC(=O)[C@H](CC(C)C)NC1=O)C(C)C [SP-237] (Ac-FIDEEVLM[S5]LVI[S5]MA[Cba]-NH2; staple 9-13)",
    "tested_system": "HRE-bla ME-180 cells",
    "result": "> 30 µM"
  },
  {
    "compound": "CCCC[C@@H]1NC(=O)[C@H](CC(C)C)NC(=O)[C@H](C(C)C)NC(=O)[C@@](C)(NC(=O)[C@H](CCC(=O)O)NC(=O)[C@H](CC(=O)O)NC(=O)[C@@H](NC(=O)[C@H](Cc2ccccc2)NC(C)=O)[C@@H](C)CC)CCCC=CCCC[C@@](C)(C(=O)N[C@@H](CC(C)C)C(=O)N[C@H](C(=O)N[C@H](C(=O)N[C@@H](CCC(=O)O)C(=O)N[C@@H](CCC(N)=O)C(=O)N[C@@H](C)C(=O)N[C@@H](CC(C)C)C(N)=O)[C@@H](C)CC)C(C)C)NC1=O [SP-146] (Ac-FIDE[S5]VL[Nle][S5]LVIEQAL-NH2; staple 5-9)",
    "tested_system": "HRE-bla ME-180 cells",
    "result": "> 30 µM"
  },
  {
    "compound": "CCCC[C@H](NC(=O)[C@H](Cc1ccccc1)NC(=O)[C@@H](NC(=O)[C@H](C)NC(=O)[C@H](CCC(N)=O)NC(=O)[C@H](CC(=O)O)NC(=O)[C@@H](NC(=O)[C@H](Cc1ccccc1)NC(C)=O)[C@@H](C)CC)C(C)C)C(=O)N[C@@]1(C)CCCC=CCCC[C@@](C)(C(=O)N[C@@H](CO)C(=O)N[C@@H](C)C(=O)N[C@@H](CC(C)C)C(=O)N[C@@H](CC(C)C)C(N)=O)NC(=O)[C@H]([C@@H](C)CC)NC(=O)[C@H](C(C)C)NC(=O)[C@H](CC(C)C)NC1=O [SP-257] (Ac-FIDQAVF[Nle][S5]LVI[S5]SALL-NH2; staple 9-13)",
    "tested_system": "HRE-bla ME-180 cells",
    "result": "5 to 15 µM"
  },
  {
    "compound": "CCCC[C@H](NC(=O)[C@H](CCC(=O)O)NC(=O)[C@]1(C)CCCC=CCCCCCC[C@@](C)(NC(=O)[C@H](CCC(=O)O)NC(=O)[C@H](CC(=O)O)NC(=O)[C@@H](NC(=O)[C@H](Cc2ccccc2)NC(C)=O)[C@@H](C)CC)C(=O)N[C@@H](C(C)C)C(=O)N[C@@H](CC(C)C)C(=O)N[C@@H](CCCC)C(=O)N[C@@H](CO)C(=O)N[C@@H](CC(C)C)C(=O)N[C@@H](C(C)C)C(=O)N1)C(=O)N[C@@H](C)C(=O)N[C@@H](CC(C)C)C(N)=O [SP-195] (Ac-FIDE[R8]VL[Nle]SLV[S5]E[Nle]AL-NH2; staple 5-12)",
    "tested_system": "HRE-bla ME-180 cells",
    "result": "≤ 5 µM"
  },
  {
    "compound": "CCCC[C@@H]1NC(=O)[C@H](CC(C)C)NC(=O)[C@H](CCCNC(=N)N)NC(=O)[C@@](C)(NC(=O)[C@H](CCC(=O)O)NC(=O)[C@H](CC(=O)O)NC(=O)[C@@H](NC(=O)[C@H](Cc2ccccc2)NC(C)=O)[C@@H](C)CC)CCCC=CCCCC2(CCCC=CCCC[C@](C)(C(=O)N[C@@H](CCCC)C(=O)N[C@@H](C)C(=O)N[C@@H](CC(C)C)C(N)=O)NC(=O)[C@H]([C@@H](C)CC)NC(=O)[C@H](C(C)C)NC(=O)[C@H](CC(C)C)NC2=O)NC1=O (some centres unmarked) [SP-206]",
    "tested_system": "HRE-bla ME-180 cells",
    "result": "> 30 µM"
  },
  {
    "compound": "CC[C@H](C)[C@H](NC(=O)[C@H](Cc1ccccc1)NC(C)=O)C(=O)N[C@@H](CC(=O)O)C(=O)N[C@@H](CCC(=O)O)C(=O)N[C@H](C(=O)N[C@H](C(=O)N[C@@H](CC(C)C)C(=O)N[C@@H](CCSC)C(=O)N[C@@]1(C)CCCC=CCCC[C@@](C)(C(=O)N[C@@H](CCSC)C(=O)N[C@@H](C)C(=O)N[C@@H](CC(C)C)C(N)=O)NC(=O)[C@H]([C@@H](C)CC)NC(=O)[C@H](C(C)C)NC(=O)[C@H](CC(C)C)NC1=O)C(C)C)[C@@H](C)O [SP-239] (Ac-FIDETVLM[S5]LVI[S5]MAL-NH2; staple 9-13)",
    "tested_system": "HRE-bla ME-180 cells",
    "result": "> 30 µM"
  }
]
